Test system: primary human hepatic stellate cells (donor 1)
METHOD_SUMMARY: scaled lipid accumulation score (0 = DMSO-like, 1 = nortriptyline-like); higher = stronger HSC inactivation (lipid re-accumulation), active = hit call of the paper
RUN_CONDITIONS: library stock concentration: 3.33 mM; 48 h
Among all 5,800 compounds or so, about 620 (11%) showed activity. This excerpt belongs to a sample that is enriched for actives.
ASSAY_METRIC: scaled lipid accumulation score

[
  {
    "COMPOUND": "CC[C@@H](CO)Nc1nc(NCc2ccc(-c3ccccn3)cc2)c2ncn(C(C)C)c2n1 [CR8, (S)-Isomer]",
    "TARGET_DESC": "primary human hepatic stellate cells (donor 1)",
    "ASSAY_METRIC": "scaled lipid accumulation score",
    "READOUT_VALUE": "≤ 0 (inactive)"
  },
  {
    "COMPOUND": "O=C(Nc1cccc2cccnc12)c1ccc(N2C(=O)C3C4C=CC(C4)C3C2=O)cc1 (stereo not drawn) [IWR-1-endo]",
    "TARGET_DESC": "primary human hepatic stellate cells (donor 1)",
    "ASSAY_METRIC": "scaled lipid accumulation score",
    "READOUT_VALUE": "≤ 0 (inactive)"
  },
  {
    "COMPOUND": "CC(C)NCCCn1c(Sc2cc3c(cc2I)OCO3)nc2c(N)ncnc21",
    "TARGET_DESC": "primary human hepatic stellate cells (donor 1)",
    "ASSAY_METRIC": "scaled lipid accumulation score",
    "READOUT_VALUE": "0.728 (inactive)"
  },
  {
    "COMPOUND": "N#Cc1c(C2CCNCC2)cc(-c2c(O)cccc2OCC2CC2)nc1N",
    "TARGET_DESC": "primary human hepatic stellate cells (donor 1)",
    "ASSAY_METRIC": "scaled lipid accumulation score",
    "READOUT_VALUE": "0.136 (inactive)"
  },
  {
    "COMPOUND": "O=C(O)COCCN1CCN(C(c2ccccc2)c2ccc(Cl)cc2)CC1 (stereo not drawn) [Cetirizine DiHCl]",
    "TARGET_DESC": "primary human hepatic stellate cells (donor 1)",
    "ASSAY_METRIC": "scaled lipid accumulation score",
    "READOUT_VALUE": "≤ 0 (inactive)"
  }
]

Query :: What value of scaled lipid accumulation score on primary human hepatic stellate cells (donor 1) does C[C@]12CC[C@@H]3c4ccc(OC(=O)c5ccccc5)cc4CC[C@H]3[C@@H]1CC[C@@H]2O [Estradiol Benzoate] have?
Result :: ≤ 0 (inactive)

Query :: Query for primary human hepatic stellate cells (donor 1): what scaled lipid accumulation score does the record show for CCn1c2ccccc2c2cc(Nc3ccnc(NCCCN4CCOCC4)n3)ccc21 ?
Result :: 0.673 (inactive)

Query :: Report scaled lipid accumulation score for COc1ccc2c(Oc3ccc(NC(=O)c4c(C)n(CC(C)(C)O)n(-c5ccccc5)c4=O)nc3)ccnc2c1 tested on primary human hepatic stellate cells (donor 1).
Result :: ≤ 0 (inactive)
